Test system: HepG2 human hepatocyte carcinoma cell line
ASSAY_EXPLANATION: MTT cytotoxicity assay against HepG2 cell line
Assay type: cell-based
MEASUREMENT_SETUP: HepG2, 24 h incubation, mean ± SD, read-out: EC50 (cytotoxicity, concentration leading to the death of 50% of the cells)
pEC50: −log10 of the molar value.
This section presents compounds with their documented pEC50 values.
QUANTITY_NAME: pEC50

- COMPOUND: "Nc1ccc(NC2=CC(=O)C(=O)c3ccccc32)cc1"
  QUANTITATIVE_RESULT: 5.52
- COMPOUND: "COc1cccc2c1C(=O)c1c(O)c3c(c(O)c1C2=O)C[C@@](O)(C(=O)CO)C[C@@H]3O[C@H]1C[C@H](N)[C@H](O)[C@H](C)O1 [Doxorubicin, doxorubicin, reference compound]"
  QUANTITATIVE_RESULT: 5.85

----------
ASSAY_EXPLANATION: MTT cytotoxicity assay against HepG2 cell line
Type: cell-based, human
MEASUREMENT_SETUP: human, HepG2 cells, HepG2, 24 h incubation, mean ± SD, read-out: EC50 (cytotoxicity, concentration leading to the death of 50% of the cells)
QUANTITY_NAME: log10(EC50 at 24 h) (log10 of the value in µM)

- MOLECULE: "O=C1C=C(Nc2ccc(Nc3ccccc3)cc2)c2ccccc2C1=O [Compound 4g]"
  QUANTITY_NAME: "log10(EC50 at 24 h)"
  QUANTITATIVE_RESULT: 0.96
- MOLECULE: "CCN(CC)C1=CC(=O)c2ccccc2C1=O [Compound 3f, 2-(diethylamine)-1,4-naphthoquinone]"
  QUANTITY_NAME: "log10(EC50 at 24 h)"
  QUANTITATIVE_RESULT: 1.81
- MOLECULE: "COc1ccc(NC2=CC(=O)c3ccccc3C2=O)cc1 [Compound 3c, 2-(4-methoxyaniline)-1,4-naphthoquinone]"
  QUANTITY_NAME: "log10(EC50 at 24 h)"
  QUANTITATIVE_RESULT: 1.11
- MOLECULE: "N#Cc1ccc(NC2=CC(=O)C(=O)c3ccccc32)cc1 [Compound 4d]"
  QUANTITY_NAME: "log10(EC50 at 24 h)"
  QUANTITATIVE_RESULT: 1.43
- MOLECULE: "COc1ccc(NC2=CC(=O)C(=O)c3ccccc32)cc1 [Compound 4c]"
  QUANTITY_NAME: "log10(EC50 at 24 h)"
  QUANTITATIVE_RESULT: 0.81
- MOLECULE: "O=C1C=Cc2ccccc2C1=O [Compound 2, 1,2-naphthoquinone]"
  QUANTITY_NAME: "log10(EC50 at 24 h)"
  QUANTITATIVE_RESULT: 1.41
- MOLECULE: "CCCCNC1=CC(=O)C(=O)c2ccccc21 [Compound 4e, 4-(butan-1-amine)-1,2-naphthoquinone]"
  QUANTITY_NAME: "log10(EC50 at 24 h)"
  QUANTITATIVE_RESULT: 1.43
- MOLECULE: "COc1cccc2c1C(=O)c1c(O)c3c(c(O)c1C2=O)C[C@@](O)(C(=O)CO)C[C@@H]3O[C@H]1C[C@H](N)[C@H](O)[C@H](C)O1 [Doxorubicin, doxorubicin, reference compound]"
  QUANTITY_NAME: "log10(EC50 at 24 h)"
  QUANTITATIVE_RESULT: 0.15
